MEASUREMENT_TARGET: EPHB2 (UniProt P29323)
Sequence (P29323 whole entry, looked up): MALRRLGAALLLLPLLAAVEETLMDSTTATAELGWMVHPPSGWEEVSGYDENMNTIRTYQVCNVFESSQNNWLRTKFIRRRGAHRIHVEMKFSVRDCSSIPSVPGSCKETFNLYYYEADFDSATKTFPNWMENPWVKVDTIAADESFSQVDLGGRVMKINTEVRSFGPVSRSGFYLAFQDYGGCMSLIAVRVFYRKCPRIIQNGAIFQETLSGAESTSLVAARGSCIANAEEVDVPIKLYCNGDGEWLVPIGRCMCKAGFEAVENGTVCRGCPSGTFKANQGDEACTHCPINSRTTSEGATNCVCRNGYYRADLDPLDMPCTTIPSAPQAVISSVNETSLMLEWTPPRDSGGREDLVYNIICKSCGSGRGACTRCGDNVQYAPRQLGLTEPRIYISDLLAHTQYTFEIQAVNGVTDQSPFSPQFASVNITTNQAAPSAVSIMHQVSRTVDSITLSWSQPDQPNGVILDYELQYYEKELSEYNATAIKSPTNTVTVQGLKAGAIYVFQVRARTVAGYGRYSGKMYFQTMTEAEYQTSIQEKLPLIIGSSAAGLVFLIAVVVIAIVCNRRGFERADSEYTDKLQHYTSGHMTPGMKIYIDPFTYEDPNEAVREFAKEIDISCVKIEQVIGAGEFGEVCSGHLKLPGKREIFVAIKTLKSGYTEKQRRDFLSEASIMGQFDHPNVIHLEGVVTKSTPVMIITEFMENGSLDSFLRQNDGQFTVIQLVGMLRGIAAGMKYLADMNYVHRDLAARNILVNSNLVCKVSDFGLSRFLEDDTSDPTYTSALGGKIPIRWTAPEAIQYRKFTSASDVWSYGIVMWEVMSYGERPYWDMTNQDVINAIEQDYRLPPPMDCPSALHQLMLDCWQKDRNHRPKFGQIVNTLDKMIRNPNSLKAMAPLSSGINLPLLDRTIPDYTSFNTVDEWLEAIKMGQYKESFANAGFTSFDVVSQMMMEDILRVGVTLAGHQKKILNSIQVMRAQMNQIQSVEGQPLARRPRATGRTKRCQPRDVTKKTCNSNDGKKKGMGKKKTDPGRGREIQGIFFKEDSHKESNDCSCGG
ASSAY_INFO: phosphorylation enrichment, bacterial display (enrichment ratio); higher = better substrate or ligand; peptides without Tyr show the background
Label Criterion met for high-side phosphorylation enrichment (at or above 0.8) and Criterion not met for low-side phosphorylation enrichment (below it).

Worked set:
{"RESIDUE_STRING": "NNIDYYKKTTN [FGFR2_Y657]", "CATEGORY": "Criterion not met"}
{"RESIDUE_STRING": "HLTNQFMQRVA [PABPC4_Y382_Y382F]", "CATEGORY": "Criterion not met"}
{"RESIDUE_STRING": "PQGVGYPQQQQ [EP300_Y2219_P2221Q]", "CATEGORY": "Criterion not met"}
{"RESIDUE_STRING": "NNHGNYIVLLG [ETFDH_Y172_R175L]", "CATEGORY": "Criterion met"}
{"RESIDUE_STRING": "SVTYTYSPALN [TP53_Y126_C124Y]", "CATEGORY": "Criterion met"}

Can EGTATYAAAVL [JUP_Y644] be said to have phosphorylation enrichment at or above 0.8? Criterion met

Can KTVQDYLKKFF [MMP8_Y36_E38K_YF] be said to have phosphorylation enrichment at or above 0.8? Criterion not met

Can YSSLGYPLPEG [ZSWIM4_Y87_P89L] be said to have phosphorylation enrichment at or above 0.8? Criterion not met

----------
MEASUREMENT_TARGET: Fes (UniProt P07332)
Sequence (P07332 whole entry, looked up): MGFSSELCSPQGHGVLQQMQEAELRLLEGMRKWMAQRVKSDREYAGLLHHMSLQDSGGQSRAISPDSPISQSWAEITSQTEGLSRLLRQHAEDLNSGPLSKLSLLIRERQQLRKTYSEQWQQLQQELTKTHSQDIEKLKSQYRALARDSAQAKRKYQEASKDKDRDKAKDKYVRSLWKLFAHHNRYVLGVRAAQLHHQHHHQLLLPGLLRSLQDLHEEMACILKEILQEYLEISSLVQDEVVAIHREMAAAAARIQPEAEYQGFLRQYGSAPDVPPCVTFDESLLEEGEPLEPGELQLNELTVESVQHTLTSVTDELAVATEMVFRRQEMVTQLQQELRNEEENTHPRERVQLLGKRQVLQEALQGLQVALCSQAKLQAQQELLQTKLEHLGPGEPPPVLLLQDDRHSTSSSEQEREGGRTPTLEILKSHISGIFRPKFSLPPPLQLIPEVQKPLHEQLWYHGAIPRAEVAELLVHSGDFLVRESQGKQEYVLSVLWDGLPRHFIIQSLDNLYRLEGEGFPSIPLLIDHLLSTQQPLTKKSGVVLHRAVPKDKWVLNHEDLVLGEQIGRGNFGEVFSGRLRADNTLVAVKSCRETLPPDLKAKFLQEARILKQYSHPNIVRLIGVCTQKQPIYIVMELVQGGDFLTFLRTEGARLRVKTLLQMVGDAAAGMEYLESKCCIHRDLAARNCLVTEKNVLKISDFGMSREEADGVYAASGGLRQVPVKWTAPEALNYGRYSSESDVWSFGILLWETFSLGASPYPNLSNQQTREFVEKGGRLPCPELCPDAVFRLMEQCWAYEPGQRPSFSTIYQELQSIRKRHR
ASSAY_INFO: phosphorylation enrichment, bacterial display (enrichment ratio); higher = better substrate or ligand; peptides without Tyr show the background
Label y for high-side phosphorylation enrichment (at or above 2) and n for low-side phosphorylation enrichment (below it).

{"RESIDUE_STRING": "LGIDRYHAIVY [NPSR1_Y147_S143G]", "MEASUREMENT_TARGET": "Fes (UniProt P07332)", "CATEGORY": "n"}
{"RESIDUE_STRING": "IWIFHYAKGQP [MPZ_Y82_S78W]", "MEASUREMENT_TARGET": "Fes (UniProt P07332)", "CATEGORY": "n"}
{"RESIDUE_STRING": "FRARAYGFRGP [CHGA_Y381]", "MEASUREMENT_TARGET": "Fes (UniProt P07332)", "CATEGORY": "n"}
{"RESIDUE_STRING": "HNVAIYEGYAL [ACTC1_Y168_P166A]", "MEASUREMENT_TARGET": "Fes (UniProt P07332)", "CATEGORY": "y"}

Now consider the entry below.
Can PVFIKYLPEWT [PSEN1_Y240_L235P] be said to have phosphorylation enrichment at or above 2? n

----------
Measured SH2 binding enrichment, listed per entry for reference.
MEASUREMENT_TARGET: c-Src SH2;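 further: peptide library displayed on the E. coli surface as eCPX fusions, selected cells deep-sequenced, score is each peptide's frequency after selection divided by its frequency in the input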
ASSAY_INFO: SH2 binding enrichment of the phosphorylated peptide, bacterial display (enrichment ratio); higher = better substrate or ligand; peptides without Tyr show the background
Just the number, please.

# example entries with known answers
{"RESIDUE_STRING": "RRIHSYRSHLW [VHL_Y112_G114S]", "MEASUREMENT_TARGET": "c-Src SH2", "VALUE_TYPE": "SH2 binding enrichment", "REPORTED": 0.57}
{"RESIDUE_STRING": "HNLFSYPTKHE [MYO3A_Y1396_YF]", "MEASUREMENT_TARGET": "c-Src SH2", "VALUE_TYPE": "SH2 binding enrichment", "REPORTED": 0.597}
{"RESIDUE_STRING": "IDSTPYGQWFE [RPS8_Y109_R110G_YF]", "MEASUREMENT_TARGET": "c-Src SH2", "VALUE_TYPE": "SH2 binding enrichment", "REPORTED": 0.561}

// next item, SH2 binding enrichment requested
Return SH2 binding enrichment for the following sequence: SRPTQYSSFSC [SPEM2_Y104] 0.857

----------
MEASUREMENT_TARGET: FGFR1 (UniProt P11362)
Sequence (P11362 whole entry, looked up): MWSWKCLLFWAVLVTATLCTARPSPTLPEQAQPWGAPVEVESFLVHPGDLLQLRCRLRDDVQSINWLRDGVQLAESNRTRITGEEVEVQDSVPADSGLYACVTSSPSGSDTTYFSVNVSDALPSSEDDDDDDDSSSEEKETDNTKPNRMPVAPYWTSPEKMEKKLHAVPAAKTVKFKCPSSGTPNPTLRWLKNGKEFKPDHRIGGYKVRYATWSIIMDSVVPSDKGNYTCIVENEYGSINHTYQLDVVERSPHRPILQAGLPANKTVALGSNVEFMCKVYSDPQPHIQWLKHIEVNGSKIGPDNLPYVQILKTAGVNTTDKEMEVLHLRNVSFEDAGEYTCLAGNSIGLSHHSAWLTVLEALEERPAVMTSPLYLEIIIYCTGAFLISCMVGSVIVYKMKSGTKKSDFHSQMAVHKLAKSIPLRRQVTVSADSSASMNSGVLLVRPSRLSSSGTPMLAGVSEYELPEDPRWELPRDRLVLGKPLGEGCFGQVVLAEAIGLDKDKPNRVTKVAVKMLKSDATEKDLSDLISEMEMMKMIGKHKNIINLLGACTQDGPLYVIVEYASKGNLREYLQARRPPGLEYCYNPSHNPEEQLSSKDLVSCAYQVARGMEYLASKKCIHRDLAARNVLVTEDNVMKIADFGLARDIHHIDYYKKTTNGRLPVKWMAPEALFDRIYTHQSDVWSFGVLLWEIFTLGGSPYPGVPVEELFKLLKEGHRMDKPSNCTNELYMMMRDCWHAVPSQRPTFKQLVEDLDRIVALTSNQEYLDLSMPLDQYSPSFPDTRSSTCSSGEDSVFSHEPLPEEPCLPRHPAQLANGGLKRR
ASSAY_INFO: phosphorylation enrichment, bacterial display (enrichment ratio); higher = better substrate or ligand; peptides without Tyr show the background
Label true for high-side phosphorylation enrichment (at or above 0.5) and false for low-side phosphorylation enrichment (below it).

Worked set:
{"RESIDUE_STRING": "NTYEKYLGEEY [TF_Y669]", "MEASUREMENT_TARGET": "FGFR1 (UniProt P11362)", "CATEGORY": "false"}
{"RESIDUE_STRING": "SLALFYRNVYH [RBL1_Y792_K794N]", "MEASUREMENT_TARGET": "FGFR1 (UniProt P11362)", "CATEGORY": "true"}
{"RESIDUE_STRING": "GPKFGYDEIDN [ACOX1_Y232]", "MEASUREMENT_TARGET": "FGFR1 (UniProt P11362)", "CATEGORY": "false"}
{"RESIDUE_STRING": "IFGEEYEEQPR [ZMYM2_Y1033_V1028I]", "MEASUREMENT_TARGET": "FGFR1 (UniProt P11362)", "CATEGORY": "true"}
{"RESIDUE_STRING": "RPSRWYQFRVA [ANOS1_Y259]", "MEASUREMENT_TARGET": "FGFR1 (UniProt P11362)", "CATEGORY": "true"}

Can NLMPAYFKCIQ [CYP21A2_Y190_YF] be said to have phosphorylation enrichment at or above 0.5? true

Can SSAAGYACLAY [MVD_Y131] be said to have phosphorylation enrichment at or above 0.5? true

----------
System: c-Src
ASSAY_INFO: phosphorylation enrichment, bacterial display (enrichment ratio); higher = better substrate or ligand; peptides without Tyr show the background
VALUE_TYPE: phosphorylation enrichment
Just the number, please.

# example entries with known answers
{"RESIDUE_STRING": "YMRGMYFRMKD [PLA2G6_Y541]", "REPORTED": 0.384}
{"RESIDUE_STRING": "ILGRTYYVNHE [NEDD4_Y627]", "REPORTED": 0.68}
{"RESIDUE_STRING": "VMICAYLLHRG [PTEN_Y138]", "REPORTED": 0.644}
{"RESIDUE_STRING": "QGFDTYFGYLL [ARSB_Y165_R160Q]", "REPORTED": 6.32}
{"RESIDUE_STRING": "IEEGTYGVAYR [CDK11B_Y449_V452A]", "REPORTED": 5.77}
{"RESIDUE_STRING": "EVQKDYEHLFK [PAM16_Y77_N76D]", "REPORTED": 0.491}

Return phosphorylation enrichment for the following sequence: SGGGSYGSGGG [KRT1_Y539] 0.271

Return phosphorylation enrichment for the following sequence: RVKTPYSLKRW [BMPR2_Y979] 0.616

Return phosphorylation enrichment for the following sequence: CEHRGFLYLAI [TEK_Y897_Y897F] 0.564

Return phosphorylation enrichment for the following sequence: IEEGTYGVVFR [CDK11B_Y449_YF] 5.94

Return phosphorylation enrichment for the following sequence: NTGLEYIKFTW [HRH1_Y386_D385E] 0.495

----------
MEASUREMENT_TARGET: EPHB1 (UniProt P54762)
Sequence (P54762 whole entry, looked up): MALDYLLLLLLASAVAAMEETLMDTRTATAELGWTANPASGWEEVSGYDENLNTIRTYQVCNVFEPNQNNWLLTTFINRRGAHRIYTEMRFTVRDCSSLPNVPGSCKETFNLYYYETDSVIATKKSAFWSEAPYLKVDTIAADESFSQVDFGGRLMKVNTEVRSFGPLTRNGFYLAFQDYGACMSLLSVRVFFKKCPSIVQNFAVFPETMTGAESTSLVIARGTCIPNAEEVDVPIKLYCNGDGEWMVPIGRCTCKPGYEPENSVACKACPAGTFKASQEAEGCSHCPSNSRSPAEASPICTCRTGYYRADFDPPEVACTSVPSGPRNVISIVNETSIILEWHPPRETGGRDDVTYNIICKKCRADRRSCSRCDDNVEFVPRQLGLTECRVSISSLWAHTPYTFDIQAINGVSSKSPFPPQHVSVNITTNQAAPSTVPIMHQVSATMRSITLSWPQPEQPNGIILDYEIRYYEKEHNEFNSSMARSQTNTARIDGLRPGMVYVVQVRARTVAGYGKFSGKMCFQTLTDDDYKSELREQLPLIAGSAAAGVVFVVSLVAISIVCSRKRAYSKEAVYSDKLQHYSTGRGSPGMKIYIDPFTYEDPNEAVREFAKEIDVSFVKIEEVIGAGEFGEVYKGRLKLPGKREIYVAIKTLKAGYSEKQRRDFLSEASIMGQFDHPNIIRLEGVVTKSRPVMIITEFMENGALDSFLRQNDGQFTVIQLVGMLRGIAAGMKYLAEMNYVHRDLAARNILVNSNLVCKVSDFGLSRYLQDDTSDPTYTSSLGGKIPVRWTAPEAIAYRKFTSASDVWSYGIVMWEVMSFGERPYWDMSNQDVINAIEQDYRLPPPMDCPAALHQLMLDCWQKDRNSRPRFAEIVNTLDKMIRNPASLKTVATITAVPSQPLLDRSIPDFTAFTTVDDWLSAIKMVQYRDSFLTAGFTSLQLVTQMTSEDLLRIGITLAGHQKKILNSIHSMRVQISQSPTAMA
ASSAY_INFO: phosphorylation enrichment, bacterial display (enrichment ratio); higher = better substrate or ligand; peptides without Tyr show the background
VALUE_TYPE: phosphorylation enrichment

# example entries with known answers
{"RESIDUE_STRING": "MAPQMYEFHLP [NCAPD2_Y6]", "MEASUREMENT_TARGET": "EPHB1 (UniProt P54762)", "phosphorylation enrichment": 4.23}
{"RESIDUE_STRING": "GSPPPYRRRKR [MBD1_Y403]", "MEASUREMENT_TARGET": "EPHB1 (UniProt P54762)", "phosphorylation enrichment": 0.451}
{"RESIDUE_STRING": "KTGDYYDLYGG [PTPN11_Y63_N58K]", "MEASUREMENT_TARGET": "EPHB1 (UniProt P54762)", "phosphorylation enrichment": 9.65}
{"RESIDUE_STRING": "RIVRKYKKVRF [F8_Y442_G439V]", "MEASUREMENT_TARGET": "EPHB1 (UniProt P54762)", "phosphorylation enrichment": 0.699}
{"RESIDUE_STRING": "CLMILYRLKER [PTPRR_Y249]", "MEASUREMENT_TARGET": "EPHB1 (UniProt P54762)", "phosphorylation enrichment": 0.444}

Return phosphorylation enrichment for the following sequence: AEQDCYHGAIP [FER_Y461_W460C] 0.648

Return phosphorylation enrichment for the following sequence: KDQGGYAMHQD [MAPT_Y29_T30A] 0.406

Return phosphorylation enrichment for the following sequence: HLAQRYLIWEC [SCN5A_Y694_R689H] 1.03

Data credit: the supplement of paper PMC10065799
